assay info: Human HepG2 cell viability assay in 384 well format
Type: toxicity, cell-based
Design: dose 125 nL, time 70.5 hour; concentration not given beside the values
condition info: HepG2 cells, read-out: Inhibition
experimental endpoint: cytotoxicity at 70.5 h (%)
# number only, unit % dropped from output

I am curious: what cytotoxicity at 70.5 h value has been reported for O=C1CC2(CCCCN2C(=O)c2ccsc2)CN1CC1CC1 (stereo not drawn) ?
8.93

I am curious: what cytotoxicity at 70.5 h value has been reported for "CN(C)C(=O)CN1CCN(c2ncccn2)[C@@H]2CS(=O)(=O)C[C@@H]21" ?
-3.2

I am curious: what cytotoxicity at 70.5 h value has been reported for O=C(c1ccc[nH]1)N1CCOCC2(CCN(C3CCOCC3)C2)C1 (stereo not drawn) ?
-19

I am curious: what cytotoxicity at 70.5 h value has been reported for COc1cc(C)c(C2CC(=O)Nc3cc(NS(C)(=O)=O)ccc32)cc1C (stereo not drawn) ?
0.99

I am curious: what cytotoxicity at 70.5 h value has been reported for CC(C)OCC(=O)N1CCC(c2ncncc2-c2ccnc(N)c2)C1 (stereo not drawn) ?
-5.98

I am curious: what cytotoxicity at 70.5 h value has been reported for Cc1ccc(N2CC3(COCCN(Cc4ccncc4)C3)OCC2=O)s1 (stereo not drawn) ?
3.84

I am curious: what cytotoxicity at 70.5 h value has been reported for COc1ccccc1-c1csc(NC(=O)N2CCN(C)CC2C)n1 (stereo not drawn) ?
-14.7

I am curious: what cytotoxicity at 70.5 h value has been reported for "Cc1noc(C)c1CN1CC[C@@H]2O[C@H](COCC(C)C)CC[C@@H]21" ?
-3.29

I am curious: what cytotoxicity at 70.5 h value has been reported for "CS(=O)(=O)NC[C@]12COC[C@H]1CN(CC1CCC1)C2" ?
-12.2

I am curious: what cytotoxicity at 70.5 h value has been reported for "COC(=O)CNC(=O)N1CCN(c2nc3ccccc3n2C)CC1" ?
26.4

I am curious: what cytotoxicity at 70.5 h value has been reported for Cc1nc(C)n(CC2CN(Cc3nc4ccccc4n3C)CCO2)n1 (stereo not drawn) ?
-13.3

I am curious: what cytotoxicity at 70.5 h value has been reported for "COC(=O)c1ccc(S(=O)(=O)N(C)CC(N)=O)c(Cl)c1" ?
-3.22

I am curious: what cytotoxicity at 70.5 h value has been reported for "COC(=O)CCNC(=O)c1nc(NS(=O)(=O)c2ccccc2)sc1C" ?
-23

I am curious: what cytotoxicity at 70.5 h value has been reported for "COc1ccc(CC(=O)N2CC[C@H](CO)[C@H](O)C2)c(OC)c1" ?
-7.77

I am curious: what cytotoxicity at 70.5 h value has been reported for CCN(C)CC1CCN(c2ncc(Br)cn2)C1 (stereo not drawn) ?
9.92

I am curious: what cytotoxicity at 70.5 h value has been reported for COc1ccc2c(c1)C(C(=O)NCCN1CCOC1=O)CC(=O)N2 (stereo not drawn) ?
-4.48

I am curious: what cytotoxicity at 70.5 h value has been reported for O=C(NCc1ccoc1)NC1CCCN(c2ncccn2)C1 (stereo not drawn) ?
-4.3

I am curious: what cytotoxicity at 70.5 h value has been reported for "CCCN(C)S(=O)(=O)NC(=O)c1ccc(CC)o1" ?
0.645

I am curious: what cytotoxicity at 70.5 h value has been reported for CS(=O)(=O)N1CCC2(CCCN(Cc3ccccn3)C2)C1 (stereo not drawn) ?
9.19

I am curious: what cytotoxicity at 70.5 h value has been reported for "O=C(Cc1ccc2c(c1)OCO2)N1CCCN(c2nccs2)CC1" ?
-8.59

I am curious: what cytotoxicity at 70.5 h value has been reported for "COCCN(CCC#N)S(=O)(=O)c1cc(F)ccc1F" ?
-2.55

I am curious: what cytotoxicity at 70.5 h value has been reported for CCc1nccn1C1CCCN(C(=O)Cc2ccc(OC)c(F)c2)C1 (stereo not drawn) ?
4.08

I am curious: what cytotoxicity at 70.5 h value has been reported for "CC(C)(O)CN1CCN(C(=O)c2cccn2Cc2cccnc2)CC1" ?
-8.17
